- Tgt: EGFR (Homo sapiens (Human))
- Sequence (P00533 25-1210): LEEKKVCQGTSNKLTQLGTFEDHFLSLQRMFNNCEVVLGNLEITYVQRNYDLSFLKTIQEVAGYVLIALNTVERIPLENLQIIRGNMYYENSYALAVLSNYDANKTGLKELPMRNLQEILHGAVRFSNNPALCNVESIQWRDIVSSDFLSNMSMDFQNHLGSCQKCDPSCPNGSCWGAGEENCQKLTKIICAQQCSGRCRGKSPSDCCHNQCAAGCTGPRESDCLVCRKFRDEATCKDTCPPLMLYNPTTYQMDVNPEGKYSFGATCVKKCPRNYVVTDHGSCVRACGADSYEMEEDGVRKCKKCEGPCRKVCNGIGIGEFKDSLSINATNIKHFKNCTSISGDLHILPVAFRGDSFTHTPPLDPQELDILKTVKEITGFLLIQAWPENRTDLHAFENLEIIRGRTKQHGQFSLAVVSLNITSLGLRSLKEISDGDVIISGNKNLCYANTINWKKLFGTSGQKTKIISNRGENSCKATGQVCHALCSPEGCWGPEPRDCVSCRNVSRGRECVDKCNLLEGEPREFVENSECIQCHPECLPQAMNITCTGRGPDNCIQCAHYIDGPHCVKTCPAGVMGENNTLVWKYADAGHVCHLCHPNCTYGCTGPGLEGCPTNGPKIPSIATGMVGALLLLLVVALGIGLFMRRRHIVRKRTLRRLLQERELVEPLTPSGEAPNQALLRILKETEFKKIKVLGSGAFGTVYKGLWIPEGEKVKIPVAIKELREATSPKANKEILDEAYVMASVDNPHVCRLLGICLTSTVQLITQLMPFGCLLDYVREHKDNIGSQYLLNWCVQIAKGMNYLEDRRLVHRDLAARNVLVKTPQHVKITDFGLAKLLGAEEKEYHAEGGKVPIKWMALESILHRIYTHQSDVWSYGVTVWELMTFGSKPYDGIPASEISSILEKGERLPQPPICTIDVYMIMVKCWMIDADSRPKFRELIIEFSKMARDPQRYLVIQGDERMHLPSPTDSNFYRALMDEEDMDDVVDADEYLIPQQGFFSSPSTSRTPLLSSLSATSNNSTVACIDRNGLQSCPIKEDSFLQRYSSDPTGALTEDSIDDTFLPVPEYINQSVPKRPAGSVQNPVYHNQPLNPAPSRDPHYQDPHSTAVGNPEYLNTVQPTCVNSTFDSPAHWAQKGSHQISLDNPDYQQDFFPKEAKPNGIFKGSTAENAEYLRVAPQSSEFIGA
- Method description: ErbB Enzyme Assay (HTRF KinEASE-TK), Assay 3
- Assay type: biochemical
- Applied conditions: EGFR enzyme
Provide the reported IC50 of each item.
Give bare numbers, in µM.

Take a look at these entries with their results.
C=CC(=O)N1CCN(c2ccc3ncnc(Nc4ccc(Oc5ccn6ncnc6c5)c(C)c4F)c3n2)C[C@@H]1C ... 2.95
C=CC(=O)N1CCCC(c2ccc3ncnc(Nc4ccc(Oc5ccn6ncnc6c5)c(C)c4F)c3n2)CC1 (stereo not drawn) ... 1.28
C=CC(=O)N1C[C@H]2CC[C@@H]1CN2c1ccc2ncnc(Nc3ccc(Oc4ccn5ncnc5c4)c(C)c3F)c2n1 ... 5.35
CC#CC(=O)N1CCN(c2ccc3ncnc(Nc4ccc(Oc5ccn6ncnc6c5)c(C)c4F)c3n2)CC1(C)C ... 7.63
C=CC(=O)N1CCN(c2ccc3ncnc(Nc4ccc(Oc5ccn6ncnc6c5)c(Cl)c4F)c3n2)C[C@H]1C ... 0.358

For each listed entry, give its IC50.
1. C=CC(=O)N1CCC(Oc2ccc3ncnc(Nc4ccc(Oc5ccn6ncnc6c5)c(C)c4)c3n2)CC1
2. C=CC(=O)N1CCC(Oc2ccc3ncnc(Nc4ccc(Oc5cnn6ccnc6c5)c(C)c4F)c3n2)CC1
3. C=CC(=O)N1CCN(c2nc3c(Nc4ccc(Oc5ccn6ncnc6c5)c(C)c4F)ncnc3cc2OC)CC1
4. C=CC(=O)N1CCC(c2ccc3ncnc(Nc4ccc(Oc5ccc6c(c5)ncn6C)c(C)c4)c3n2)C(C)C1 (stereo not drawn)
5. C=CC(=O)N1C[C@@H](c2ccc3ncnc(Nc4cc(C)c(Oc5ccc6c(c5)ncn6C)cc4F)c3n2)C[C@@H]1C
6. C=CC(=O)N1[C@H](C)CN(c2ccc3ncnc(Nc4cc(C)c(Oc5ccc6c(c5)ncn6C)cc4F)c3n2)C[C@@H]1C
7. C=CC(=O)N1[C@@H]2CC[C@H]1CC(c1ccc3ncnc(Nc4cc(C)c(Oc5ccc6c(c5)ncn6C)cc4F)c3n1)C2 (mixture of isomers)

**A:**
1. 4.43
2. 1.44
3. 1.04
4. 7.48
5. 3.8
6. 3.33
7. 7.34

Required: IC50, one value per compound below.
1. C=CC(=O)N1CC[C@@H](c2ccc3ncnc(Nc4ccc(Oc5ccc6c(c5)ncn6C)c(C)c4F)c3n2)C1 (racemic)
2. C=CC(=O)N1C[C@H]2C[C@@H]1[C@H](c1ccc3ncnc(Nc4ccc(Oc5ccn6ncnc6c5)c(Cl)c4F)c3n1)C2

**A:**
1: 2.16; 2: 0.0705
